Attribution: paper PMC3528769

# System Name: Cq-FABP (Cherax quadricarinatus, UniProt L0I6Z9)
# Sequence (L0I6Z9 entry or part of it): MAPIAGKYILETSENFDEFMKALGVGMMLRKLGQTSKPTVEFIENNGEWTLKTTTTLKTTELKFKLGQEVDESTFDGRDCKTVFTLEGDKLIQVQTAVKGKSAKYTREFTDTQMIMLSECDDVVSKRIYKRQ
# Assay Overview: BODIPY-C16 steady-state fluorescence anisotropy titration and competition
# Type: binding
# Conditions: 200 nM BODIPY-C16, 5 µM Cq-FABP; read-out: IC50 (displaces 50% of BODIPY-C16 from the fatty acid binding site)

{"columns": ["Molecule", "IC50 (µM)"],
 "data": [
  ["CCCCC/C=C\\C/C=C\\CCCCCCCC(=O)O", 3.53],
  ["CC/C=C\\C/C=C\\C/C=C\\C/C=C\\C/C=C\\CCCC(=O)O [EPA, cis-5,8,11,14,17-eicosapentaenoic acid]", 2.29],
  ["CC/C=C\\C/C=C\\C/C=C\\C/C=C\\C/C=C\\C/C=C\\CCC(=O)O [DHA, cis-4,7,10,13,16,19-docosahexaenoic acid]", 7.67],
  ["CCCCCCCCCCCCCCCC(=O)O", 1.17],
  ["CN(C)c1cccc2c(S(=O)(=O)NCCCCCCCCCCC(=O)O)cccc12 [DAUDA, reference compound]", 263]
]}
